Tested on: KB-3-1
Assay: Cell survival assay (SRB), KB-3-1
Format: cell-based, human
Details: Homo sapiens, KB 3-1, KB-3-1 cells (paclitaxel-sensitive parent); read-out: In vitro IC50 (nM) KB-3-1
Label 1 when IC50 < 2 nM; otherwise -1.

Here are 5 compounds together with their reported answers.
compound: CCOC(=O)/C(C)=C/[C@H](C(C)C)N(C)C(=O)[C@@H](NC(=O)[C@@H](NC)C(C)(C)c1ccc(OC)cc1)C(C)(C)C [Example 56]
system: KB-3-1
category_label: -1
//
compound: CN[C@H](C(=O)N[C@H](C(=O)N(C)[C@H](/C=C(\C)C(=O)O)C(C)C)C(C)(C)C)C(C)(C)c1ccsc1 [Example 23]
system: KB-3-1
category_label: -1
//
compound: CN[C@H](C(=O)N[C@H](C(=O)N(C)[C@H](/C=C(\C)C(=O)O)C(C)C)C(C)(C)C)C(C)(C)c1ccc(/C=C/c2ccccc2)cc1 [Example 146]
system: KB-3-1
category_label: 1
//
compound: CN[C@H](C(=O)N[C@H](C(=O)N(C)[C@H](/C=C(\C)C(=O)O)C(C)C)C(C)(C)SCc1ccc(OC)cc1)C(C)(C)c1ccccc1 [Example 82]
system: KB-3-1
category_label: -1
//
compound: C/C(=C\[C@H](C(C)C)N(C)C(=O)[C@@H](NC(=O)[C@@H](N(C)CCO)C(C)(C)c1ccccc1)C(C)(C)C)C(=O)O [Example 53]
system: KB-3-1
category_label: -1

// query Strictly below 2 nM in IC50? CN[C@H](C(=O)N[C@H](C(=O)N(C)[C@H](/C=C(\C)C(=O)O)C(C)C)C(C)(C)C)C(C)(C)c1ccc(C)c(C)c1 [Example 14]
// result 1

// query Strictly below 2 nM in IC50? CN[C@@H](C(=O)N[C@H](C(=O)N(C)[C@H](/C=C(\C)C(=O)O)C(C)C)C(C)(C)C)C(C)(C)c1cccc(F)c1 [Example 61]
// result -1

// query Strictly below 2 nM in IC50? CN[C@H](C(=O)N[C@H](C(=O)N(C)[C@H](/C=C(\C)C(=O)O)C(C)C)C(C)(C)C)C(C)(C)c1ccc(C)cc1 [Example 11]
// result 1
